Data credit: patent US20100273189A1

Measured B-HRP10 light intensity values are reported for all entries that follow.
target: biotinylated HRP (Armoracia rusticana, UniProt P00433); construct: purchased Roche Diagnostics, Indianapolis, Ind., USA; test: Model system for selection of SSIA (M280 btn-BSA-AK1-streptavidin particles + Btn-HRP:HRP); assay type: biochemical; conditions: Btn-HRP 10 ng/mL, total HRP 500 ng/mL; SSIA final 100 μM
Sequence (P00433 31-338 limits assumed): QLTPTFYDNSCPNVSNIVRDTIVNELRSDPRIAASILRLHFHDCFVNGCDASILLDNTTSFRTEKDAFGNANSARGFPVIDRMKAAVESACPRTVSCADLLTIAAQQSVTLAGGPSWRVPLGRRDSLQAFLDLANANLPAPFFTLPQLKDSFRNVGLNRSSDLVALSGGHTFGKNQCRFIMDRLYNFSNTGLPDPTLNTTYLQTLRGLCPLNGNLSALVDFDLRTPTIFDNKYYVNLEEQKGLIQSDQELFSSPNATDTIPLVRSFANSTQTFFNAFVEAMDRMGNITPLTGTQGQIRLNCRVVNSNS

Known B-HRP10 light intensity results, listed for orientation:
Task: Quick one: B-HRP10 light intensity for Oc1ccc(O)c(Cl)c1 [2-chloro-1,4-dihydroxybenzene] ?
Output: 188,920

Task: Also, Oc1ccc(Cl)cc1O please.
Output: 1,373

Could you now look at the following molecule, please?
Task: Quick one: B-HRP10 light intensity for COc1cc(C(=O)O)cc(OC)c1O ?
Output: 939,372
